Please provide measured cell viability for the entries that follow.
Tested on: HepG2
assay-comment: cell viability relative to DMSO; higher = less toxic
test-context: 72 h; 10 nM
One number for each entry, in %.

Would you please look over these solved cases?
Cc1ccccc1-n1c(Cn2ncc3c(N)ncnc32)nc2cccc(C)c2c1=O :: 90
CC[C@@H](CO)NCCN[C@@H](CC)CO :: 108

Prompt: May I ask what cell viability has been recorded for NCCCC[C@H](NC(=O)[C@@H](Cc1cc(Br)c(O)c(Br)c1)NC(=O)N1CCC(N2Cc3ccccc3NC2=O)CC1)C(=O)N1CCN(c2ccncc2)CC1 ?
Response: 97.2

====

Exercise: for every item that follows, state its recorded cell viability.
System: Caco-2
assay-comment: cell viability relative to DMSO; higher = less toxic
test-context: 72 h; 100 nM
Answers are plain numbers, in %.

CC(=O)Oc1ccccc1C(=O)O :: 81
CCCc1ncc(C[n+]2ccccc2C)c(N)n1 :: 88.5
CCC(=N\O)/C(C)=C/c1ccc(F)cc1 :: 89.5
Nc1cccc(CNC(=O)c2ccc(Oc3ccc(OCc4cccc(F)c4)cc3)nc2)c1 :: 91.5

Hi, could you look up cell viability for each item in my list?
1. COc1cc(C(=O)NC2CCCNC2)cc(OC)c1OC (stereo not drawn) [troxipide]
2. C[C@H](N)Cc1cccc(O)c1
3. Cn1ncnc1[C@H]1c2n[nH]c(=O)c3cc(F)cc(c23)N[C@@H]1c1ccc(F)cc1
4. CCOC(=O)[C@@H](N)CCC(=O)N[C@@H](CSCc1ccccc1)C(=O)N[C@@H](C(=O)OCC)c1ccccc1
5. Clc1cccc(Cl)c1CSc1nnc(-c2cnccn2)s1
6. C/C(=C\c1csc(C)n1)[C@@H]1C[C@@H]2O[C@]2(C)CCC[C@H](C)[C@H](O)[C@@H](C)C(=O)C(C)(C)[C@@H](O)CC(=O)O1
7. CCC(C)(C)c1ccc(CC(C)CN2C[C@@H](C)O[C@@H](C)C2)cc1 (stereo partly drawn)

Response:
[98.4, 88, 93.7, 92, 94.7, 47.6, 91.8]

Your task in this section: give cell viability for each listed record.
1. Cc1c(C(=O)Nc2ccc(N3CCC(N4CCOCC4)CC3)c(C#N)c2)cnn1-c1ccc(Cl)cc1
2. c1ccc(-c2n[nH]c3c2oc2ccccc23)cc1
3. CSC[C@H](N)C(=O)O
4. Cc1nc(C#Cc2ccnc(Cl)c2)c(C)n1-c1ccc(F)cc1
5. Cc1cnc(C(=O)O)c[n+]1[O-]
6. OC[C@H]1O[C@@H](O[C@@H]2[C@@H](CO)OC(O)(CO)[C@H]2O)[C@H](O)[C@@H](O)[C@H]1O (mixture of isomers)
7. CC(=C(CCO)SSCC1CCCO1)N(C=O)Cc1cnc(C)nc1N (stereo in doubt)

Response:
1. 103
2. 104
3. 86.5
4. 101
5. 95.4
6. 101
7. 97.6

====

System: Calu-3
assay-comment: cell viability relative to DMSO; higher = less toxic
test-context: 72 h; 100 nM
Exercise: state measured cell viability for each of the compounds provided.
Give bare numbers, in %.

CN(C)Cc1ccc(-c2nc3cccc4c3n2CCNC4=O)cc1 :: 80.8
CN1C/C=C/CCOc2cccc(c2)-c2ccnc(n2)Nc2cccc(c2)C1 :: 87.7

Prompt: Query (compound): Cn1ncnc1[C@H]1c2n[nH]c(=O)c3cc(F)cc(c23)N[C@@H]1c1ccc(F)cc1 ; field requested: cell viability
Response: 93.3

====

Test system: U2OS
assay-comment: cell viability relative to DMSO; higher = less toxic
test-context: 72 h; 1 nM
readout-type: cell viability (%)
Answers are plain numbers, in %.

Reference set (2 entries):
Cc1ccc(NC(=O)c2cccc(C(C)(C)C#N)c2)cc1Nc1ccc2ncn(C)c(=O)c2c1 :: 98.7
COc1cc(N)c(Cl)cc1C(=O)N[C@@H]1CCN(CCCOc2ccc(F)cc2)C[C@@H]1OC (racemic) [cisapride] :: 97.4

The record that follows has no cell viability shown yet.
Prompt: Reported cell viability, compound CCCCOc1ccc(CC(=O)NO)cc1 : ____
Response: 100

====

Test system: Vero E6
assay-comment: cell viability relative to DMSO; higher = less toxic
test-context: 72 h; 100 nM
readout-type: cell viability (%)
Answers are plain numbers, in %.

Answered examples (3):
CCOc1cc(N)c(Cl)cc1C(=O)NCC1CN(Cc2ccc(F)cc2)CCO1 (stereo unspecified) [mosapride] :: 101
C/C(=C\c1csc(C)n1)[C@@H]1C[C@@H]2O[C@]2(C)CCC[C@H](C)[C@H](O)[C@@H](C)C(=O)C(C)(C)[C@@H](O)CC(=O)O1 :: 29.9
N=C(N)Nc1ccc(C(=O)Oc2ccc3cc(C(=N)N)ccc3c2)cc1 :: 104

For each listed entry, give its cell viability.
1. COc1cc2c(cc1OC)CN(CCc1ccc(NC(=O)c3cccc4c(=O)c5cccc(OC)c5[nH]c34)cc1)CC2
2. CCOc1ccc(Cc2nccc3cc(OCC)c(OCC)cc23)cc1OCC
3. Clc1ccc(Nc2nnc(Cc3ccncc3)c3ccccc23)cc1
4. CC(CN1c2ccccc2Sc2ccccc21)N(C)C (stereo unspecified)
5. O=C(O)c1cccnc1
6. CCc1cc2cc(OC)c(OC)cc2c(Cc2ccccc2)n1
7. CCCC(=O)C1CCN(c2ncnc3c2CN(C(=O)c2ccc(-c4ccccc4)cc2)CC3)CC1

Response:
1: 98.7; 2: 103; 3: 89; 4: 99.4; 5: 96.3; 6: 92.2; 7: 99.7

Prompt: # value lookup — system Vero E6, readout cell viability, item CCOC(=O)Nc1nc2ccccc2[nH]1
Response: 87.6

====

System: U2OS
assay-comment: cell viability relative to DMSO; higher = less toxic
test-context: 72 h; 100 nM
I'd be grateful if you could share measured cell viability for these entries.
Answers are plain numbers, in %.

N=C(N)NC(=N)Nc1cccc(Cl)c1 [m-chlorophenylbiguanide] :: 103

Would you mind listing cell viability for each of the following molecules?
1. OC[C@H]1O[C@H](O[C@H]2O[C@H](CO)[C@@H](O)[C@H](O)[C@H]2O)[C@H](O)[C@@H](O)[C@@H]1O [cabaletta]
2. CN1C(=O)C[C@@H](C(=O)N[C@@H](Cc2c[nH]cn2)C(=O)N2CCC[C@H]2C(N)=O)NC1=O [taltirelin]
3. Cc1cc(OCC(=O)O)cc(C)c1Cc1ccc(O)c(C(C)C)c1 [sobetirome]
4. NC(=O)OCC(O)COc1ccc(Cl)cc1 (stereo not given) [chlorphensin-carbamate]

Response:
[104, 99.5, 99.5, 96.3]

====

Consider the following molecules; for each one, report its cell viability.
System: Calu-3
assay-comment: cell viability relative to DMSO; higher = less toxic
test-context: 72 h; 10 nM
Numbers only, in %.

Examples with answers:
NC(=O)OCC(O)COc1ccc(Cl)cc1 (stereo not drawn) [chlorphensin-carbamate] :: 96.3
Cc1c(NC(=O)c2cc3c(s2)CCCC3)cccc1-c1cn(C)c(=O)c(Nc2ccc(C3C(=O)N(C)CCN3C)cc2)n1 (stereo in doubt) :: 100
CCCCCCCCCCCCCC[C@@H](O)[C@@H](O)[C@@H](N)CO :: 101
CN1CCN(CCCN2c3ccccc3Sc3ccc(C(F)(F)F)cc32)CC1 :: 99.3
COc1c(-c2ccc3cc(NS(C)(=O)=O)ccc3c2)cc(-n2ccc(=O)[nH]c2=O)cc1C(C)(C)C :: 106
O=C(O)Cn1c(C(=O)Nc2nc(-c3ccccc3Cl)cs2)cc2ccccc21 :: 92.5

Would you be so kind as to report cell viability for each listed record?
1. CO[C@H]1/C=C/O[C@@]2(C)Oc3c(C)c(O)c4c(O)c(c(/C=N/N5CCN(C)CC5)c(O)c4c3C2=O)NC(=O)/C(C)=C\C=C\[C@H](C)[C@H](O)[C@@H](C)[C@@H](O)[C@@H](C)[C@H](OC(C)=O)[C@@H]1C
2. C[C@@H](O[C@H]1OCCN(Cc2nn(P(=O)(O)O)c(=O)[nH]2)[C@H]1c1ccc(F)cc1)c1cc(C(F)(F)F)cc(C(F)(F)F)c1 [fosaprepitant-dimeglumine]
3. Clc1ccc(Nc2nnc(Cc3ccncc3)c3ccccc23)cc1
4. c1ccc(C(O[C@@H]2CCCN(CCc3ccc4c(c3)OCO4)C2)c2ccccc2)cc1

Response:
99.6
93.8
89.8
99.2

Okay, here is my list. What is cell viability for each of these?
1. CNC[C@H](O)c1ccc(O)c(O)c1 [epinephrine]
2. CCOC(=O)[C@]12CC1/C(=N\O)c1ccccc1O2 (stereo partly drawn)
3. COCC(=O)Nc1c(I)c(C(=O)NCC(O)CO)c(I)c(C(=O)N(C)CC(O)CO)c1I (stereo not drawn) [iopromide]

Response:
110
105
104

====

Tested on: Calu-3
assay-comment: cell viability relative to DMSO; higher = less toxic
test-context: 72 h; 1 nM
Exercise: state measured cell viability for each of the compounds provided.
Numbers only, in %.

Record excerpt, results attached:
Nc1nccc(-c2c(-c3ccc(F)cc3)ncn2C2CCCCC2)n1 :: 91.1
CC(C(=O)O)c1ccc(CC2CCCC2=O)cc1 (stereo unspecified) :: 101
O=C(O)c1nn(Cc2ccc(Cl)cc2Cl)c2ccccc12 :: 98.5

Value sought for every listed compound: cell viability.
1. C/C=C(/C)C(=O)O[C@H]1C(C)=C[C@]23C(=O)[C@@H](C=C(CO)[C@@H](O)[C@]12O)[C@H]1[C@@H](C[C@H]3C)C1(C)C [ingenol-mebutate]
2. CCOc1cc(C(=O)N2CCC(N3CCN(C)CC3)CC2)ccc1Nc1ncc2c(n1)N(C1CCCC1)c1ccccc1C(=O)N2C
3. N=C(N)SCc1ccc(B(O)O)cc1
4. CC(CN1c2ccccc2Sc2ccccc21)N(C)C (stereo unspecified)
5. CCCCOc1ccc(CC(=O)NO)cc1
6. O.O=[Si]=O.O=[Si]=O.O=[Si]=O.O=[Si]=O.[O]=[Mg].[O]=[Mg].[O]=[Mg]
7. CC(C)NC[C@@H](C(=O)N1CCN(c2ncnc3c2[C@H](C)C[C@H]3O)CC1)c1ccc(Cl)cc1

Response:
1. 117
2. 104
3. 92.3
4. 112
5. 95.8
6. 87
7. 101

Prompt: Need cell viability of COC(=O)C1=C(C)NC(C)=C(C(=O)OCCCN2CCC(c3ccccc3)(c3ccccc3)CC2)[C@@H]1c1cccc([N+](=O)[O-])c1 , thanks.
Response: 104
